Tested on: Leishmania mexicana
Assay: Antiparasitic activity against Leishmania mexicana M9012 after 3 days by Alamar blue assay
Format: functional, organism-based
Details: M9012, 72 h
READOUT_KIND: pEC50
pEC50 is defined as minus the log10 of a concentration measured in mol/L.

Entry `CCN(CC)CCCCCCNc1cc(OC)cc2c(C)ccnc12.Cl.Cl` under Leishmania mexicana had pEC50 of 5.02

----------
Tested on: Leishmania infantum
Assay: Antiparasitic activity against Leishmania infantum MHOM/ES/1993/BCN-99 after 3 days by Alamar blue assay
Assay type: functional, organism-based
Details: MHOM/ES/1993/BCN-99, 72 h
READOUT_KIND: EC50 (µM)
Note: unit µM is implicit; provide only the numeric part.

The value of EC50 measured for the compound `CCN(CC)CCCCCCNc1cc(OC)cc2c(C)ccnc12.Cl.Cl` turned out to be 9.5
